# target.system: ATR kinase (full-length ATR) (Homo sapiens, UniProt Q13535)
# Construct: Assays were carried out at 25° C. in the presence of 5 nM full-length ATR
# Sequence (Q13535 whole entry): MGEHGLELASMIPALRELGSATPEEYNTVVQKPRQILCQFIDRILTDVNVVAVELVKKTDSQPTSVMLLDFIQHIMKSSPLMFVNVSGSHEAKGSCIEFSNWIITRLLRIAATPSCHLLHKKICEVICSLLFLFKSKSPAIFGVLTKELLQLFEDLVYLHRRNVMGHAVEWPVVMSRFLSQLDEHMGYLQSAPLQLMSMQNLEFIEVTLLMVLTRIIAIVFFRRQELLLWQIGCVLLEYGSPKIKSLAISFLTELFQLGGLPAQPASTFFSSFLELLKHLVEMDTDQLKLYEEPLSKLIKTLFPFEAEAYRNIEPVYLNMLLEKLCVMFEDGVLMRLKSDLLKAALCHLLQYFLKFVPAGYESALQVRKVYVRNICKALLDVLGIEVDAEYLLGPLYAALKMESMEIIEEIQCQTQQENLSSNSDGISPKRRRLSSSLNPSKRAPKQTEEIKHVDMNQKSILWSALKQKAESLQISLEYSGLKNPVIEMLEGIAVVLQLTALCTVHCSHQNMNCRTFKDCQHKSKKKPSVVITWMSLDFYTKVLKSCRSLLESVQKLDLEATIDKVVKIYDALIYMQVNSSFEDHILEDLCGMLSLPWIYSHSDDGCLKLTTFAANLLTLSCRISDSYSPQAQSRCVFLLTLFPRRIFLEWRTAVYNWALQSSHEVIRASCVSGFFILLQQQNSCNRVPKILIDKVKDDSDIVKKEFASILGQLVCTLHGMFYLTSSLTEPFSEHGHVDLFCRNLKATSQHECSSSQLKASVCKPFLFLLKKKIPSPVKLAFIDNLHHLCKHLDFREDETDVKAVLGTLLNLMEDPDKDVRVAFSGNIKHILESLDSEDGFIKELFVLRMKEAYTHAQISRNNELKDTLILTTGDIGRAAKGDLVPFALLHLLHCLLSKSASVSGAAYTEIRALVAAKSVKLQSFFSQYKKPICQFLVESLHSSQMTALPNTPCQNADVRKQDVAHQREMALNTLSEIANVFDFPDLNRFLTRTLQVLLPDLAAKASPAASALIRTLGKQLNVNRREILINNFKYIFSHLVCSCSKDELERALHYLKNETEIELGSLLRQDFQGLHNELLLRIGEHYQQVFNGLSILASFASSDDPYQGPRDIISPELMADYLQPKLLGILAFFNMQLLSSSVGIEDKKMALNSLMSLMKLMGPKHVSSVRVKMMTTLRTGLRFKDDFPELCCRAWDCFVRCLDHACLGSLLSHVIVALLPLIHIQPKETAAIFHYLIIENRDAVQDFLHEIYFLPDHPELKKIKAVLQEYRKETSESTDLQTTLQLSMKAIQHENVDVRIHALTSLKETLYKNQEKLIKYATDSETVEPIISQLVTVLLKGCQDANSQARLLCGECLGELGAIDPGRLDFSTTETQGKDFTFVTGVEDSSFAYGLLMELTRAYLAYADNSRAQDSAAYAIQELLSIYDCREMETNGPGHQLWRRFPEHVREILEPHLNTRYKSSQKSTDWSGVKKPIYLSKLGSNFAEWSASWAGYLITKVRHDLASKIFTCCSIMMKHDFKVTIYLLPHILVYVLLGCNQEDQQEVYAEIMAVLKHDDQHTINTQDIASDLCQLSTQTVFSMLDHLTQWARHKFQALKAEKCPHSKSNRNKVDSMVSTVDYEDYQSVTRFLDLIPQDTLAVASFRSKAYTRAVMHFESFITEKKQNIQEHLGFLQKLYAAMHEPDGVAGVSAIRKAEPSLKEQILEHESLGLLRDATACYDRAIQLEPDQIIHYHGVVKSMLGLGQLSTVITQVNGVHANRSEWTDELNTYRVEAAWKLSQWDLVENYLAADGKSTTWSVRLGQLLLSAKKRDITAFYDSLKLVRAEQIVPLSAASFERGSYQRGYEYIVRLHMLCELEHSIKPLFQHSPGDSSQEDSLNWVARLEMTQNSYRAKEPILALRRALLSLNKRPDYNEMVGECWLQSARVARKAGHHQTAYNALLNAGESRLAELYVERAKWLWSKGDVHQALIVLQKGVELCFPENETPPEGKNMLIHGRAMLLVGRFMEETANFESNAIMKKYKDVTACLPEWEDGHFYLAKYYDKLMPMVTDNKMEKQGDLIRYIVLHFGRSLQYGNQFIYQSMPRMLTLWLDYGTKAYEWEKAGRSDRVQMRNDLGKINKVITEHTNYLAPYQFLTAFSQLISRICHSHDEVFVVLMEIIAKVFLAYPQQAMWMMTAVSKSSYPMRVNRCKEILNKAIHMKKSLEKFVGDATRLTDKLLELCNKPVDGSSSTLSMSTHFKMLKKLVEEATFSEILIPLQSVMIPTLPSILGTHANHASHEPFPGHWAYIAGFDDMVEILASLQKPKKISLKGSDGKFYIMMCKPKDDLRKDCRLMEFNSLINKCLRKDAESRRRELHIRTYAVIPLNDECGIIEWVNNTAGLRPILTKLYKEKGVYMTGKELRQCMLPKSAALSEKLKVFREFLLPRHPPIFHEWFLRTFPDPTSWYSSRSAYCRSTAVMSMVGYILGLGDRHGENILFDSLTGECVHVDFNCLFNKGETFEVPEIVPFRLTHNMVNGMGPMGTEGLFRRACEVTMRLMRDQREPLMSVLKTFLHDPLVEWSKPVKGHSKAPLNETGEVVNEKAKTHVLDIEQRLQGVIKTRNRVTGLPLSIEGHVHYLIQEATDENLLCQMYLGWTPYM
# experiment: ATR Inhibition Assay (radioactive-phosphate incorporation)
# experimental.context: Ki(app); 10 μM ATP, 800 μM target peptide, 5 nM full-length ATR, 25° C.
Recorded Ki by entry

{"columns": ["molecule", "Ki"],
 "data": [
  ["Nc1ncc(-c2ccc(S(=O)(=O)[C@@H]3CCCNC3)cc2)nc1-c1cc(-c2ccc([C@@H]3COCCN3)cc2)no1", "≤ 5 nM"],
  ["Nc1ncc(-c2ccc(S(=O)(=O)C3CCCNC3)cc2)nc1-c1nnc(-c2ccc(C3COCCN3)cc2)o1 (centres unmarked)", "≤ 5 nM"],
  ["COc1ccsc1-c1nnc(-c2nc(-c3ccc(S(=O)(=O)C4CCCNC4)cc3)cnc2N)o1 (centres unmarked)", "≤ 5 nM"],
  ["COc1ccccc1-c1nnc(-c2nc(-c3ccc(S(=O)(=O)C4CCCNC4)cc3)cnc2N)o1 (centres unmarked)", "≤ 5 nM"],
  ["Cc1ccccc1-c1cc(-c2nc(-c3ccc(S(=O)(=O)C4CCCNC4)cc3)cnc2N)on1 (centres unmarked)", "10 to 25 nM"],
  ["Cc1ccsc1-c1nnc(-c2nc(-c3ccc(S(=O)(=O)[C@@H]4CCCNC4)cc3)cnc2N)o1", "≤ 5 nM"],
  ["Cc1ccsc1-c1nnc(-c2nc(-c3ccc(S(=O)(=O)[C@H]4CCCNC4)cc3)cnc2N)o1", "≤ 5 nM"],
  ["Nc1ncc(-c2ccc(S(=O)(=O)C3CCCNC3)cc2)nc1-c1cc(-c2cccs2)no1 (centres unmarked)", "≤ 5 nM"],
  ["Nc1ncc(-c2ccc(S(=O)(=O)C3CCCNC3)cc2)nc1-c1cc(-c2ccccc2F)no1 (centres unmarked)", "10 to 25 nM"],
  ["Nc1ncc(-c2ccc(S(=O)(=O)C3CCCNC3)cc2)nc1-c1cc(-c2ccccc2O)no1 (centres unmarked)", "≤ 5 nM"],
  ["Nc1ncc(-c2ccc(S(=O)(=O)C3CCCNC3)cc2)nc1-c1cc(-c2ccccc2Cl)no1 (centres unmarked)", "10 to 25 nM"]
]}

Cited source for all entries: patent US8841449B2
